Please provide measured pIC50 for the entries that follow.
system.under.test: human LPA1 (Homo sapiens, UniProt Q92633)
Construct: the full-length cDNA for human LPA1 was obtained by PCR of the reverse transcription reaction
Sequence (Q92633 whole entry): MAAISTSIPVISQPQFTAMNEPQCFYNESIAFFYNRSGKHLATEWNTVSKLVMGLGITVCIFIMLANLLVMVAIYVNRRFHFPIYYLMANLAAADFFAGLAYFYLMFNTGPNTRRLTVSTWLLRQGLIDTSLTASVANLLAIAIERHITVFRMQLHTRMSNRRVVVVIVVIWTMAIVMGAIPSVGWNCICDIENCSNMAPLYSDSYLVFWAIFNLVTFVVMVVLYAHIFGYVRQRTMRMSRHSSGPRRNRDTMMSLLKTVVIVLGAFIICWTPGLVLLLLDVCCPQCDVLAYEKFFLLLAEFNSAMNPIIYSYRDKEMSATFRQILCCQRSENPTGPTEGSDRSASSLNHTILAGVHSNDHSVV
method.description: LPA1 calcium flux assay
experimental.parameters: CHO cells expressing human LPA1, stimulated with 10 nM LPA; read-out: HLPA1 Ca Flux IC50
pIC50: −log10 of the molar value.

response.value for Cc1noc(-c2ccc(-c3ccc(C4(CC(=O)NS(C)(=O)=O)CC4)cc3)cc2)c1C(CCCc1ccccc1)OC(=O)NS(C)(=O)=O (stereo not shown) (field: pIC50) = 6.00 to 6.52

The molecule Cc1noc(-c2ccc(-c3ccc(C4(C(=O)O)CC4)cc3)cc2)c1CC(=O)N[C@H]1c2ccccc2C[C@H]1O showed pIC50 equal to 4.30 to 6.00

Looking up Cc1noc(-c2ccc(-c3ccccc3CC(=O)O)cc2)c1NC(C)CCCO (stereo not shown) , I found its pIC50 recorded as 4.30 to 6.00

Note to self: pIC50 recorded for Cc1noc(-c2ccc(-c3ccc(C4(C(=O)O)CC4)cc3)cc2)c1CNC(=O)C(C)Oc1ccccc1 (stereo not shown) was 6.00 to 6.52

Consider COc1ccc(CCC(C)Nc2c(C)noc2-c2ccc(-c3ccc(C4(CC(=O)O)CC4)cc3)cc2)cc1 (stereo not shown) . Its measured pIC50 is 6.00 to 6.52

Recorded result, Cc1noc(-c2ccc(-c3ccc(C4(C(=O)O)CC4)cc3)cc2)c1COC(=O)N[C@@H](C)c1ccccc1 , pIC50: 4.30 to 6.00

For record Cc1noc(-c2ccc(-c3ccc(CCC(=O)O)cc3)cc2)c1[C@H](O)CSCc1ccccc1 the listed pIC50 is > 6.52

====

system.under.test: human LPA1 (Homo sapiens)
Construct: the full-length cDNA for human LPA1 was obtained by PCR of the reverse transcription reaction
method.description: LPA1 calcium flux assay
experimental.parameters: CHO cells expressing human LPA1, stimulated with 10 nM LPA; read-out: HLPA1 Ca Flux IC50
pIC50: −log10 of the molar value.
Would you mind telling me the reported pIC50 of each entry?

# compound Cc1noc(-c2ccc(-c3ccc(C4(CC(=O)O)CC4)cc3)cc2)c1NC(C)CCc1cccc(C(F)(F)F)c1 (centres unmarked) ; its pIC50 = > 6.52

Lookup result for Cc1noc(-c2ccc(-c3ccc(C4(C(=O)O)CC4)cc3)cc2)c1NC(CCc1ccccc1)c1ccccc1 (centres unmarked) ; measured pIC50: 6.00 to 6.52

// field: pIC50; key: Cc1noc(-c2ccc(-c3ccc(C4(C(=O)NS(=O)(=O)C5CC5)CC4)cc3)cc2)c1NC(=O)NS(=O)(=O)C1CC1 ; value = 4.30 to 6.00

compound Cc1noc(-c2ccc(-c3ccc(C4(C(=O)O)CC4)cc3)cc2)c1C(O)CCCc1ccncc1 (centres unmarked) , pIC50 observed: > 6.52

For Cc1noc(-c2ccc(-c3ccc(C4(CC(=O)O)CC4)cc3)cc2)c1C(O)CCCCc1ccc(Cl)c(Cl)c1 (centres unmarked) the compound record lists pIC50 as > 6.52

# pIC50 (compound: Cc1noc(-c2ccc(-c3ccc(C4(C(=O)O)CC4)cc3)cc2)c1CN(CC(C)c1ccccc1)C(=O)C1CC1 (centres unmarked) ) is 4.30 to 6.00

So, Cc1noc(-c2ccc(-c3cccc(C(=O)O)c3)cc2)c1NC(=O)NCc1ccccc1 ? Its pIC50 was 4.30 to 6.00

pIC50 measured on Cc1noc(-c2ccc(-c3ccc(C4(C(=O)O)CC4)cc3)cc2)c1NCCC(C)(C)C = 6.00 to 6.52

pIC50 recorded for this compound, Cc1noc(-c2ccc(-c3ccc([C@H]4C[C@H]4C(=O)O)cc3)cc2)c1CC(F)(F)CCc1ccccc1 (relative stereo) , is > 6.52

What the record says about Cc1noc(-c2ccc(-c3ccc(C4(C(=O)O)CC4)cc3)cc2)c1CC(=O)N1Cc2ccccc2C1 : pIC50 is < 4.30

The value of pIC50 measured for the compound Cc1noc(-c2ccc(-c3ccc(C4(C(=O)O)CC4)cc3)cc2)c1CC(=O)NC1Cc2ccccc2C1 turned out to be > 6.52

Lab book: pIC50 of Cc1noc(-c2ccc(-c3ccc(C4(C(=O)O)CC4)cc3)cc2)c1/C=C/[S+]([O-])Cc1ccccc1 (single isomer, unassigned) [Compound 1-263] noted as 4.30 to 6.00

Value of measured pIC50 for the entry Cc1noc(-c2ccc(-c3ccc(C4(C(=O)O)CC4)cc3)cc2)c1CC(=O)N(C)Cc1ccccc1F : > 6.52

Entry Cc1noc(-c2ccc(-c3ccc(C4(C(=O)O)CC4)cc3)cc2)c1CNCC1CCCCC1 — recorded pIC50 = < 4.30
